B1: BTBD1 (parent)
chain: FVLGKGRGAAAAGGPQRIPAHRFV

Variants of: B1
Experiment: protein stability index of a GFP-peptide fusion (GPS, HEK-293T) (PSI 1-6); higher = more stable;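 further: lentivirally expressed fusions sorted by FACS into six bins by GFP to DsRed ratio, PSI derived from sequencing read proportions per bin multiplied by bin number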
Details: c terminus: a fixed tail appended
Label met when protein stability index is at or above 2; anything below gets not met.

[[record]]
variant_string = "I18C"
assigned_category = "met"

[[record]]
variant_string = "Q16M"
assigned_category = "met"

[[record]]
variant_string = "I18M"
assigned_category = "met"

[[record]]
variant_string = "G6H"
assigned_category = "not met"

[[record]]
variant_string = "P15D"
assigned_category = "not met"

[[record]]
variant_string = "P15W"
assigned_category = "not met"

[[record]]
variant_string = "Q16R"
assigned_category = "not met"

[[record]]
variant_string = "Q16A"
assigned_category = "not met"

[[record]]
variant_string = "V2G"
assigned_category = "met"

[[record]]
variant_string = "F1T"
assigned_category = "met"

[[record]]
variant_string = "F1V"
assigned_category = "met"

[[record]]
variant_string = "H21M"
assigned_category = "met"

[[record]]
variant_string = "V2S"
assigned_category = "met"

[[record]]
variant_string = "V2N"
assigned_category = "met"

[[record]]
variant_string = "F1H"
assigned_category = "met"

[[record]]
variant_string = "A20N"
assigned_category = "not met"

[[record]]
variant_string = "R7V"
assigned_category = "met"

[[record]]
variant_string = "A12N"
assigned_category = "not met"

[[record]]
variant_string = "H21G"
assigned_category = "not met"

[[record]]
variant_string = "A11P"
assigned_category = "not met"

[[record]]
variant_string = "A12K"
assigned_category = "not met"

[[record]]
variant_string = "A9I"
assigned_category = "not met"

[[record]]
variant_string = "V24G"
assigned_category = "not met"

[[record]]
variant_string = "A20C"
assigned_category = "not met"

[[record]]
variant_string = "L3G"
assigned_category = "not met"

[[record]]
variant_string = "V2I"
assigned_category = "not met"

[[record]]
variant_string = "A12D"
assigned_category = "not met"

[[record]]
variant_string = "A20E"
assigned_category = "met"

[[record]]
variant_string = "Q16I"
assigned_category = "met"

[[record]]
variant_string = "P19V"
assigned_category = "not met"

[[record]]
variant_string = "L3H"
assigned_category = "met"

[[record]]
variant_string = "P15Y"
assigned_category = "not met"

[[record]]
variant_string = "A9F"
assigned_category = "not met"

[[record]]
variant_string = "I18R"
assigned_category = "not met"

[[record]]
variant_string = "P15S"
assigned_category = "not met"

[[record]]
variant_string = "P15C"
assigned_category = "met"

[[record]]
variant_string = "A20F"
assigned_category = "met"

[[record]]
variant_string = "L3Q"
assigned_category = "not met"

[[record]]
variant_string = "P19I"
assigned_category = "met"

[[record]]
variant_string = "G13L"
assigned_category = "met"

[[record]]
variant_string = "G4M"
assigned_category = "not met"

[[record]]
variant_string = "R7K"
assigned_category = "not met"

[[record]]
variant_string = "G13S"
assigned_category = "met"

[[record]]
variant_string = "Q16D"
assigned_category = "not met"

[[record]]
variant_string = "R17F"
assigned_category = "not met"

[[record]]
variant_string = "F1K"
assigned_category = "met"

[[record]]
variant_string = "K5Q"
assigned_category = "not met"

[[record]]
variant_string = "V24M"
assigned_category = "met"

[[record]]
variant_string = "F23H"
assigned_category = "not met"

[[record]]
variant_string = "F23K"
assigned_category = "met"

[[record]]
variant_string = "V2H"
assigned_category = "met"

[[record]]
variant_string = "V2D"
assigned_category = "met"

[[record]]
variant_string = "G6I"
assigned_category = "met"

[[record]]
variant_string = "G6K"
assigned_category = "not met"

[[record]]
variant_string = "R22H"
assigned_category = "not met"

[[record]]
variant_string = "R17V"
assigned_category = "met"

[[record]]
variant_string = "F23C"
assigned_category = "not met"

[[record]]
variant_string = "R7E"
assigned_category = "not met"

[[record]]
variant_string = "R7H"
assigned_category = "not met"

[[record]]
variant_string = "A20T"
assigned_category = "not met"

[[record]]
variant_string = "K5Y"
assigned_category = "met"

[[record]]
variant_string = "L3W"
assigned_category = "not met"

[[record]]
variant_string = "G13V"
assigned_category = "not met"

[[record]]
variant_string = "R7Q"
assigned_category = "not met"

[[record]]
variant_string = "F23P"
assigned_category = "met"

[[record]]
variant_string = "A12Y"
assigned_category = "not met"

[[record]]
variant_string = "G4A"
assigned_category = "not met"

[[record]]
variant_string = "A10I"
assigned_category = "not met"

[[record]]
variant_string = "G14N"
assigned_category = "not met"

[[record]]
variant_string = "R7L"
assigned_category = "met"

[[record]]
variant_string = "G6E"
assigned_category = "met"

[[record]]
variant_string = "K5P"
assigned_category = "not met"

[[record]]
variant_string = "A11E"
assigned_category = "not met"

[[record]]
variant_string = "V2M"
assigned_category = "met"

[[record]]
variant_string = "H21V"
assigned_category = "met"

[[record]]
variant_string = "Q16T"
assigned_category = "not met"

[[record]]
variant_string = "L3E"
assigned_category = "not met"

[[record]]
variant_string = "R7S"
assigned_category = "met"

[[record]]
variant_string = "A9Y"
assigned_category = "not met"

[[record]]
variant_string = "R7N"
assigned_category = "not met"

[[record]]
variant_string = "G4Q"
assigned_category = "not met"

[[record]]
variant_string = "P19N"
assigned_category = "met"

[[record]]
variant_string = "A11N"
assigned_category = "not met"

[[record]]
variant_string = "R7D"
assigned_category = "not met"

[[record]]
variant_string = "L3Y"
assigned_category = "not met"

